- System: Shigella flexneri
- Assay Name: Antibacterial activity against Shigella flexneri at 100 ug/disc after 24 hrs by disc diffusion method
- Format: functional
- Experimental Conditions: read-out: DIZ
Below, each of the compounds is paired with its reported zone of inhibition at 100 µg/disc value.
Please reply with the bare figure in mm and do not write the unit itself.

Compound: CCN1CCN(CC2SC(c3ccccc3C(=O)O)N(c3ccc(Nc4nc(Oc5cc(=O)n(C)c6ccccc56)nc(N(C)C)n4)cc3)C2=O)CC1 (centres undefined)
Units: mm
Result Value: 15
--
Compound: O=C(O)c1cn(C2CC2)c2cc(N3CCNCC3)c(F)cc2c1=O [CIPROFLOXACIN]
Units: mm
Result Value: 32
--
Compound: CCN1CCN(CC2SC(c3ccc(C(=O)O)cc3)N(c3ccc(Nc4nc(Oc5cc(=O)n(C)c6ccccc56)nc(N(C)C)n4)cc3)C2=O)CC1 (centres undefined)
Units: mm
Result Value: 27
--
Compound: CCN1CCN(CC2SC(c3ccc(Cl)c(Cl)c3)N(c3ccc(Nc4nc(Oc5cc(=O)n(C)c6ccccc56)nc(N(C)C)n4)cc3)C2=O)CC1 (centres undefined)
Units: mm
Result Value: 22
--
Compound: CCN1CCN(CC2SC(c3ccc(Cl)cc3Cl)N(c3ccc(Nc4nc(Oc5cc(=O)n(C)c6ccccc56)nc(N(C)C)n4)cc3)C2=O)CC1 (centres undefined)
Units: mm
Result Value: 26

Task: For the record CCN1CCN(CC2SC(c3ccc(O)cc3)N(c3ccc(Nc4nc(Oc5cc(=O)n(C)c6ccccc56)nc(N(C)C)n4)cc3)C2=O)CC1 (centres undefined) , what value of zone of inhibition at 100 µg/disc is listed for Shigella flexneri?
Result: 13

Task: Give Shigella flexneri zone of inhibition at 100 µg/disc for CCN1CCN(CC2SC(c3ccccc3[N+](=O)[O-])N(c3ccc(Nc4nc(Oc5cc(=O)n(C)c6ccccc56)nc(N(C)C)n4)cc3)C2=O)CC1 (centres undefined)
Result: 14

Task: Request body: readout zone of inhibition at 100 µg/disc, system Shigella flexneri, query CCN1CCN(CC2SC(c3ccc(F)cc3)N(c3ccc(Nc4nc(Oc5cc(=O)n(C)c6ccccc56)nc(N(C)C)n4)cc3)C2=O)CC1 (centres undefined) . Return the value.
Result: 19

Task: Please tell me: zone of inhibition at 100 µg/disc of CCN1CCN(CC2SC(c3ccc(OC)c(OC)c3)N(c3ccc(Nc4nc(Oc5cc(=O)n(C)c6ccccc56)nc(N(C)C)n4)cc3)C2=O)CC1 (centres undefined) , system Shigella flexneri?
Result: 22
